- target_or_system: T1, human activated protein C (human, UniProt P04070 43-197; P04070 212-461)
- T1 construct: In the plasma assays aPC is generated in human plasma with Protac; also called aPC; haPC
- assay_notes: Octet BLI, antibody on Protein A sensor, huAPC 3.13-50 nM, 1:1 model, 25 C, pH 7.4
Entries and their measured kon follow.
Output spec: scalar in M⁻¹ s⁻¹, unitless text.

binder	value_observed
HAPC-14-6 (antibody, V domains shown, Whole IgG, backbone hIgG1; also called HPAC 14-6; No. 6) VH: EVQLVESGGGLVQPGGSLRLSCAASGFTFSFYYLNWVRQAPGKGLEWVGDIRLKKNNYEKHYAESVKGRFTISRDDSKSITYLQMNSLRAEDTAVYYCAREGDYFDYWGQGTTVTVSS VL: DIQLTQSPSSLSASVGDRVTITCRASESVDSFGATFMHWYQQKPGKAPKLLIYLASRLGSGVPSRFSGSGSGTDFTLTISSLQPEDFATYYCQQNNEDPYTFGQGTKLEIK	297000
HAPC-14-2 (antibody, V domains shown, Whole IgG, backbone hIgG1; also called HPAC 14-2) VH: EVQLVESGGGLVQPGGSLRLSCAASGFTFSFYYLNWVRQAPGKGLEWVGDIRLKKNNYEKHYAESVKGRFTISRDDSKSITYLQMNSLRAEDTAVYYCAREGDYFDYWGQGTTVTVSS VL: DIQLTQSPSSLSASVGDRVTITCRASESVDSFGATFMHWYQQKPGKAPKLLIYLASWLESGVPSRFSGSGSGTDFTLTISSLQPEDFATYYCVQNNEDPYTFGQGTKLEIK	307000

Record request: kon value, item Humanized antibody 14 (HAPC-14) (antibody, V domains shown, also called Humab001-14; NO; 14 antibody) VH: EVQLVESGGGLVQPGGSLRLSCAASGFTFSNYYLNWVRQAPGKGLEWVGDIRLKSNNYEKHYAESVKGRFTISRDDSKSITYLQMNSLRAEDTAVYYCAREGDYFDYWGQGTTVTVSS VL: DIQLTQSPSSLSASVGDRVTITCRASESVDSFGATFMHWYQQKPGKAPKLLIYLASNLESGVPSRFSGSGSGTDFTLTISSLQPEDFATYYCQQNNEDPYTFGQGTKLEIK 64000
